- Tested on: FLT3-ITD-D835Y
- assay-summary: Auto-phosphorylation of FLT3 in transformed BaF3 isogenic cells
- Assay type: cell-based
attribute-measured: pEC50
Recall that pEC50 is obtained by taking minus log10 of the concentration measured in molar.

For the molecule "Cc1[nH]nc2ccc(-c3cncc(OC[C@@H](N)Cc4ccccc4)c3)cc12" , what pEC50 is on record?
5.90

###

- assayed-target: FLT3-ITD (ITD+kinase domain)
- assay-summary: ADP-Glo biochemical assay
- condition-summary: ATP final 50 μM
attribute-measured: pIC50
Please treat pIC50 as minus the base-10 logarithm of the molar concentration.

Tell me reported pIC50 for "Cc1[nH]nc2ccc(-c3cncc(OC[C@@H](N)Cc4ccccc4)c3)cc12" , tested with FLT3-ITD (ITD+kinase domain).
6.87

###

- System: U937 (FLT3-wt)
- assay-summary: Cell proliferation assay (CellTiter-Glo)
- Type: cell-based, human
- condition-summary: Homo sapiens, U-937, 72 hours
Reported GI50 values for a set of compounds
Supply the numeric figure in µM, leaving out any unit text.

# count of solved cases: 3
CCn1c(-c2nonc2N)nc2c(C#CC(C)(C)O)ncc(OC[C@H]3CCCNC3)c21 [GSK690693] | 5.1
CC(C)NC[C@@H](C(=O)N1CCN(c2ncnc3c2[C@H](C)C[C@H]3O)CC1)c1ccc(Cl)cc1 [GDC0068] | 0.59
NC1(C(=O)N[C@@H](CCO)c2ccc(Cl)cc2)CCN(c2ncnc3[nH]ccc23)CC1 [AZD5363] | 0.61

Attention now shifts to the item below.
Record request: GI50 value, item NC1(c2ccc(-c3nc4ccn5c(=O)[nH]nc5c4cc3-c3ccccc3)cc2)CCC1 [MK2206]
7.2

###

- Test system: MOLM-13 (FLT3-ITD/wt)
- assay-summary: Cell proliferation assay (CellTiter-Glo)
- Assay type: cell-based, human
- condition-summary: Homo sapiens; MOLM-13 (FLT3-ITD/wt), 72 hours, Table 1
attribute-measured: GI50 (nM)
Just the number in nM, nothing appended.

NC1(C(=O)N[C@@H](CCO)c2ccc(Cl)cc2)CCN(c2ncnc3[nH]ccc23)CC1 | 160
CC(C)NC[C@@H](C(=O)N1CCN(c2ncnc3c2[C@H](C)C[C@H]3O)CC1)c1ccc(Cl)cc1 | 290
CCn1c(-c2nonc2N)nc2c(C#CC(C)(C)O)ncc(OC[C@H]3CCCNC3)c21 | 280

Pending compound:
Returns the measured GI50 for the input compound. Input: "NC1(c2ccc(-c3nc4ccn5c(=O)[nH]nc5c4cc3-c3ccccc3)cc2)CCC1"
100

###

- Tested on: PF382
- assay-summary: Colony formation (clonogenic) assay
- Format: cell-based, human
- condition-summary: PF382, 15 days
attribute-measured: EC50 (nM)
Numeric only. Scale: nM

Form field: reported EC50 of "Cc1[nH]nc2ccc(-c3cncc(OC[C@@H](N)Cc4ccccc4)c3)cc12"
861
